EC50 values for the binders below.
ASSAY TARGET: T1, human CD3 epsilon, cell surface expressed (human PBMCs / human T cells) (human, UniProt P07766 23-207)
T1 construct: On the cells CD3 epsilon is part of the native CD3/TCR complex; also called CD3 on human PBMCs
T1 sequence (P07766 23-207 limits assumed): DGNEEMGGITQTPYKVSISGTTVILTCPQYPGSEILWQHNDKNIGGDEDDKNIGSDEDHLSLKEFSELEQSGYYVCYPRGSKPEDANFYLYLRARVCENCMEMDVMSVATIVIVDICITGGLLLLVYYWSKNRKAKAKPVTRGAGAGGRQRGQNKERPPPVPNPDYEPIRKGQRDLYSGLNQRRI
ASSAY COMMENT: flow cytometry (FACS) on human PBMCs
QUANTITY: EC50 (nM)

INSERT INTO measurements (binder, quantity, experimental_value) VALUES
  ('MAB-7_h_FabCys (Fab, V domains shown, Tagless disulfide-bridged human FabCys produced in HEK293 cells; also called MAB-7 Fab-Cys) VH: EVQLVESGGGLVQPGGSLRLSCAASGFTFKSYYMSWVRQAPGKGLEWVANIDYQSQHAYYAESVKGRFTISRDNAKNSLYLQMNSLRAEDTAVYYCARGYSAEFAHRSGLDVWGQGTLVTVSS VL: QSVLTQPPSASGTPGQRVTISCSGSSSNIGSNYVYWYQQLPGTAPKLLIYRNNQRPSGVPDRFSGSKSGTSASLAISGLRSEDEADYYCAAWDRHSHGAVFGGGTKLTVLG', 'EC50', 6.1),
  ('MAB-12_h_FabCys (Fab, V domains shown, Tagless disulfide-bridged human FabCys produced in HEK293 cells; also called MAB-12 Fab-Cys) VH: EVQLVESGGGLVQPGGSLRLSCAASGFTFRSHYMTWVRQAPGKGLEWVANIDYEGTRTYYAESVKGRFTISRDNAKNSLYLQMNSLRAEDTAVYYCARGYSAEFAHRSGLDVWGQGTLVTVSS VL: QSVLTQPPSASGTPGQRVTISCSGSSSNIGANYVYWYQQLPGTAPKLLIYRNNQRPSGVPDRFSGSKSGTSASLAISGLRSEDEADYYCAAWDRHSHGAVFGGGTKLTVLG', 'EC50', 5.7),
  ('MAB-9_h_FabCys (Fab, V domains shown, Tagless disulfide-bridged human FabCys produced in HEK293 cells; also called MAB-9 Fab-Cys) VH: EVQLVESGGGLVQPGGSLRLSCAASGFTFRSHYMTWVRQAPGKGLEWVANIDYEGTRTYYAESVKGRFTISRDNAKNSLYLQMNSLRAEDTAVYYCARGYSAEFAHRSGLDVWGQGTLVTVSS VL: QSVLTQPPSASGTPGQRVTISCSGSSSNIGINYVYWYQQLPGTAPKLLIYRNNIRPSGVPDRFSGSKSGTSASLAISGLRSEDEADYYCAAWDRHSHGAVFGGGTKLTVLG', 'EC50', 7.7),
  ('MAB-8_h_FabCys (Fab, V domains shown, Tagless disulfide-bridged human FabCys produced in HEK293 cells; also called MAB-8 Fab-Cys) VH: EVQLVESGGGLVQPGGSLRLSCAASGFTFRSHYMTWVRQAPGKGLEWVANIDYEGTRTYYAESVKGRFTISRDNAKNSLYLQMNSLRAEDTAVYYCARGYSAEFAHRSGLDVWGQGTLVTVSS VL: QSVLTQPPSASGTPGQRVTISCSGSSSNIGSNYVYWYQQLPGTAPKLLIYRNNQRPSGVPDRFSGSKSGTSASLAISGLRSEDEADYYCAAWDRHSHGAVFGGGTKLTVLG', 'EC50', 5.5),
  ('MAB-16_h_FabCys (Fab, V domains shown, Tagless disulfide-bridged human FabCys produced in HEK293 cells; also called MAB-16 Fab-Cys) VH: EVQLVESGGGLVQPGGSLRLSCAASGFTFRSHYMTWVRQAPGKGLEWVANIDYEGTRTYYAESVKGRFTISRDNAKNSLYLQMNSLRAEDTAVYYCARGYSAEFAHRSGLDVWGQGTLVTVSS VL: QSVLTQPPSASGTPGQRVTISCSGSSSNIGSNYVYWYQQLPGTAPKLLIYRNNQRPSGVPDRFSGSKSGTSASLAISGLRSEDEADYYCAGWDRRLHGAVFGGGTKLTVLG', 'EC50', 3.3),
  ('MAB-13_h_FabCys (Fab, V domains shown, Tagless disulfide-bridged human FabCys produced in HEK293 cells; also called MAB-13 Fab-Cys) VH: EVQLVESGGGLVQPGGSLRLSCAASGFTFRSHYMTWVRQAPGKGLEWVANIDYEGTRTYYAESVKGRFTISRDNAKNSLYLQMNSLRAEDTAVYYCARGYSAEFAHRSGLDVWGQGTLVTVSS VL: QSVLTQPPSASGTPGQRVTISCSGSSSNIGINYVYWYQQLPGTAPKLLIYRNNQRPSGVPDRFSGSKSGTSASLAISGLRSEDEADYYCAAWDRHSHGAVFGGGTKLTVLG', 'EC50', 8.3);
